Assay: Pharmacokinetics of D10.1 after PO, SQ and IV dosing in mice
Conditions: SQ 12.2 mg/kg, AVG
attribute_measured: Cmax (µM)
Enter your answer as a number in µM; do not include the unit.

Documented Cmax of CC[C@H](C)[C@@H]1NC(=O)[C@@H](CC(C)C)NC(=O)[C@H](CC(C)C)N(C)C(=O)[C@H](Cc2ccccc2)NC(=O)CN(C)C(=O)[C@@H]2CCCN2C(=O)[C@H](C(C)C)NC(=O)[C@H](Cc2ccccc2)N(C)C(=O)[C@H]2CCCN2C(=O)[C@H](CC(C)C)NC1=O : 4.14

---

Experiment: Pharmacokinetics of D10.1 after PO, SQ and IV dosing in mice
Settings: PO 12.2 mg/kg, AVG
attribute_measured: Cmax
Please report the result as a number followed by the unit.

Documented Cmax of CC[C@H](C)[C@@H]1NC(=O)[C@@H](CC(C)C)NC(=O)[C@H](CC(C)C)N(C)C(=O)[C@H](Cc2ccccc2)NC(=O)CN(C)C(=O)[C@@H]2CCCN2C(=O)[C@H](C(C)C)NC(=O)[C@H](Cc2ccccc2)N(C)C(=O)[C@H]2CCCN2C(=O)[C@H](CC(C)C)NC1=O [Design D10.1, lILp*FVP*GF*L] : 2920 nM

---

Details: PAMPA
Where a SMILES comes first, the peptide text is derived from it. [ ]: non-standard residue; d: D form. dNMeF = CN[C@H](Cc1ccccc1)C(=O)O
The following compounds are shown together with reported PAMPA_Papp_Avg (apparent permeability) values.
Enter your answer as a number in ×10⁻⁶ cm/s; do not include the unit.

compound	readout_unit	PAMPA_Papp_Avg (apparent permeability)
CC(C)C[C@H]1NC(=O)[C@@H]2CCCN2C(=O)[C@@H]2CCCN2C(=O)[C@@H](C)NC(=O)[C@@H](Cc2ccccc2)N(C)C(=O)[C@H]2CCCN2C1=O [Design D6.4, p*faPPl] (cyclo(PP[dL][dP][dNMeF][dA]))	×10⁻⁶ cm/s	13.9

Now look at this one.
Documented PAMPA_Papp_Avg (apparent permeability) of CC(C)C[C@@H]1NC(=O)[C@@H](CC(C)C)NC(=O)[C@H]2CCCN2C(=O)[C@H](CC(C)C)NC(=O)[C@@H](CC(C)C)NC(=O)[C@H](CC(C)C)NC(=O)[C@@H]2CCCN2C(=O)[C@@H](C)NC1=O [Design D8.1, lLplLaPL] (cyclo(L[dA]PL[dL]L[dP][dL])) : 6.94

---

Assay: Pharmacokinetics of D10.1 after PO, SQ and IV dosing in mice
Details: female, Balb/C, mouse, plasma, sc, 12.2 mg/kg
attribute_measured: level at time molar at 0.25 h (nM)
Enter your answer as a number in nM; do not include the unit.

Documented level at time molar at 0.25 h of CC[C@H](C)[C@@H]1NC(=O)[C@@H](CC(C)C)NC(=O)[C@H](CC(C)C)N(C)C(=O)[C@H](Cc2ccccc2)NC(=O)CN(C)C(=O)[C@@H]2CCCN2C(=O)[C@H](C(C)C)NC(=O)[C@H](Cc2ccccc2)N(C)C(=O)[C@H]2CCCN2C(=O)[C@H](CC(C)C)NC1=O : 2530

---

Settings: PAMPA
Where a SMILES comes first, the peptide text is derived from it. [ ]: non-standard residue; d: D form. NMeL = CN[C@@H](CC(C)C)C(=O)O; dNMeL = CN[C@H](CC(C)C)C(=O)O; NMeA = CN[C@@H](C)C(=O)O; dNMeA = CN[C@H](C)C(=O)O
attribute_measured: PAMPA_Papp_Avg (apparent permeability) (nm/s)
Enter your answer as a number in nm/s; do not include the unit.

compound	PAMPA_Papp_Avg (apparent permeability) / nm/s
CC[C@@H](C)[C@H]1NC(=O)[C@@H](CC(C)C)NC(=O)[C@H](C(C)C)NC(=O)[C@@H](CC(C)C)N(C)C(=O)[C@@H]2CCCN2C(=O)[C@H](C)NC(=O)[C@H](CC(C)C)N(C)C(=O)[C@H]2CCCN2C(=O)[C@H](C)N(C)C(=O)[C@@H](CC(C)C)N(C)C(=O)[C@@H]2CCCN2C1=O [Design D11.5, AP*lVliP*l*Ap*L] (cyclo(AP[dNMeL]V[dL][dI]P[dNMeL][NMeA][dP][NMeL]))	28.1

Now look at this one.
Documented PAMPA_Papp_Avg (apparent permeability) of CC(C)C[C@@H]1NC(=O)[C@H](CC(C)C)N(C)C(=O)[C@H]2CCCN2C(=O)[C@@H](C)NC(=O)[C@@H](C)N(C)C(=O)[C@@H](C(C)C)NC(=O)[C@@H](CC(C)C)N(C)C(=O)[C@@H]2CCCN2C1=O [Design D8.30, ap*LLP*lv*a] (cyclo(LP[dNMeL][dV][dNMeA][dA][dP][NMeL])) : 43.2

---

Conditions: PAMPA
Where a SMILES comes first, the peptide text is derived from it. [ ]: non-standard residue; d: D form. dNMeI = CC[C@@H](C)[C@@H](NC)C(=O)O; NMeF = CN[C@@H](Cc1ccccc1)C(=O)O; dNMeF = CN[C@H](Cc1ccccc1)C(=O)O; NMeL = CN[C@@H](CC(C)C)C(=O)O; dNMeL = CN[C@H](CC(C)C)C(=O)O; dNMeV = CN[C@@H](C(=O)O)C(C)C; NMeV = CN[C@H](C(=O)O)C(C)C; NMeA = CN[C@@H](C)C(=O)O; dNMeA = CN[C@H](C)C(=O)O
Please mark yes if the recorded PAMPA_Papp_Avg (apparent permeability) is equal to or greater than 1 ×10⁻⁶ cm/s, and no if it falls below.

Study these solved cases before continuing.
molecule	assigned_category
CC[C@H](C)[C@@H]1NC(=O)[C@H](Cc2ccccc2)N(C)C(=O)[C@H](CC(C)C)N(C)C(=O)[C@@H](C(C)C)NC(=O)[C@@H](C)NC(=O)[C@@H]2CCCN2C(=O)[C@@H](CC(C)C)NC(=O)[C@@H]2CCCN2C(=O)[C@H](C)NC1=O [Design D9.6, Pav*L*FIAPl] (cyclo(AP[dL]P[dA][dV][NMeL][NMeF]I))	yes
CC[C@@H](C)[C@H]1NC(=O)[C@@H](Cc2ccccc2)NC(=O)[C@@H]2CCCN2C(=O)[C@@H]([C@H](C)CC)NC(=O)[C@@H](Cc2ccccc2)NC(=O)[C@@H]2CCCN2C1=O [Design D6.1, iPfiPf] (cyclo(P[dF][dI]P[dF][dI]))	yes
CC[C@@H](C)[C@H]1NC(=O)[C@@H]2CCCN2C(=O)[C@@H](CC(C)C)N(C)C(=O)[C@@H](C(C)C)NC(=O)[C@@H]2CCCN2C(=O)[C@@H](CC(C)C)N(C)C(=O)[C@H](C)N(C)C(=O)[C@@H](C)NC1=O [Design D8.18, ia*A*lPv*lP] (cyclo([NMeA][dNMeL]P[dV][dNMeL]P[dI][dA]))	yes
CC(C)C[C@H]1C(=O)N2CCC[C@@H]2C(=O)N[C@@H](Cc2ccccc2)C(=O)N2CCC[C@H]2C(=O)N(C)[C@H](C(C)C)C(=O)N[C@H](Cc2ccccc2)C(=O)N1C [Design D6.10, *vf*LpFP] (cyclo(FP[dNMeV][dF][NMeL][dP]))	yes
CC[C@H](C)[C@@H]1NC(=O)[C@@H](CC(C)C)N(C)C(=O)[C@H](CC(C)C)N(C)C(=O)[C@@H](C)N(C)C(=O)[C@@H](Cc2ccccc2)NC(=O)[C@H](C(C)C)NC(=O)[C@@H](C)NC(=O)[C@@H]2CCCN2C(=O)[C@H]2CCCN2C1=O [Design D9.10, Vf*a*L*lIpPa] (cyclo([dA]V[dF][dNMeA][NMeL][dNMeL]I[dP]P))	no

Determine whether measured PAMPA_Papp_Avg (apparent permeability) meets or exceeds 1 ×10⁻⁶ cm/s for CC(C)C[C@@H]1C(=O)N[C@H](C(C)C)C(=O)N(C)[C@@H](C(C)C)C(=O)N2CCC[C@H]2C(=O)N2CCC[C@@H]2C(=O)N[C@@H](C)C(=O)N(C)[C@@H](Cc2ccccc2)C(=O)N(C)[C@H](CC(C)C)C(=O)N[C@H](C)C(=O)N1C [Design D9.17, pA*F*la*lv*VP] (cyclo(A[NMeF][dNMeL][dA][dNMeL][dV][NMeV]P[dP]))
yes

Determine whether measured PAMPA_Papp_Avg (apparent permeability) meets or exceeds 1 ×10⁻⁶ cm/s for CC[C@@H](C)[C@H]1NC(=O)[C@H]([C@@H](C)CC)NC(=O)[C@H](CC(C)C)N(C)C(=O)[C@H]2CCCN2C(=O)[C@@H]([C@H](C)CC)NC(=O)[C@@H]([C@H](C)CC)N(C)C(=O)[C@H](CC(C)C)NC(=O)[C@H]2CCCN2C(=O)[C@@H]2CCCN2C(=O)[C@H](C(C)C)NC(=O)[C@H]2CCCN2C1=O [Design D11.3, VPpL*iip*LIip] (cyclo(I[dI][dP]VP[dP]L[dNMeI][dI][dP][NMeL]))
yes

Determine whether measured PAMPA_Papp_Avg (apparent permeability) meets or exceeds 1 ×10⁻⁶ cm/s for CC(C)C[C@@H]1C(=O)N(C)[C@@H](CC(C)C)C(=O)N2CCC[C@@H]2C(=O)N[C@H](CC(C)C)C(=O)N[C@H](C)C(=O)N2CCC[C@@H]2C(=O)N2CCC[C@H]2C(=O)N[C@@H](C)C(=O)N[C@H](Cc2ccccc2)C(=O)N[C@H](CC(C)C)C(=O)N[C@@H](C(C)C)C(=O)N1C (single isomer, unassigned) [Design D11.9.p1, V*l*LplapPAfl]
no

Determine whether measured PAMPA_Papp_Avg (apparent permeability) meets or exceeds 1 ×10⁻⁶ cm/s for CC(C)C[C@@H]1C(=O)N[C@H](CC(C)C)C(=O)N2CCC[C@@H]2C(=O)N2CCC[C@@H]2C(=O)N(C)[C@@H](C)C(=O)N[C@H](Cc2ccccc2)C(=O)N[C@@H](C)C(=O)N(C)[C@@H](CC(C)C)C(=O)N1C [Design D8.10, pp*AfA*L*ll] (cyclo(A[NMeL][dNMeL][dL][dP][dP][NMeA][dF]))
yes

Determine whether measured PAMPA_Papp_Avg (apparent permeability) meets or exceeds 1 ×10⁻⁶ cm/s for CC(C)C[C@@H]1NC(=O)[C@H](C)NC(=O)[C@@H]2CCCN2C(=O)[C@H]2CCCN2C(=O)[C@H](Cc2ccccc2)NC(=O)[C@H]2CCCN2C(=O)[C@@H](Cc2ccccc2)N(C)C(=O)[C@@H]2CCCN2C(=O)[C@@H](C)NC(=O)[C@H](CC(C)C)NC1=O [Design D10.49, aP*fpFpPALL] (cyclo(ALL[dA]P[dNMeF][dP]F[dP]P))
no

Determine whether measured PAMPA_Papp_Avg (apparent permeability) meets or exceeds 1 ×10⁻⁶ cm/s for CC(C)C[C@@H]1C(=O)N[C@@H](C(C)C)C(=O)N[C@@H](C)C(=O)N2CCC[C@H]2C(=O)N2CCC[C@@H]2C(=O)N[C@@H](C(C)C)C(=O)N[C@@H](C)C(=O)N(C)[C@@H](CC(C)C)C(=O)N1C [Design D8.22, APpVA*L*lV] (cyclo(A[NMeL][dNMeL]VAP[dP]V))
no

Determine whether measured PAMPA_Papp_Avg (apparent permeability) meets or exceeds 1 ×10⁻⁶ cm/s for CC[C@@H](C)[C@H]1NC(=O)[C@@H](Cc2ccccc2)N(C)C(=O)[C@@H]2CCCN2C(=O)[C@@H]([C@H](C)CC)NC(=O)[C@@H](Cc2ccccc2)N(C)C(=O)[C@@H]2CCCN2C1=O [Design D6.2, iP*fiP*f] (cyclo(P[dNMeF][dI]P[dNMeF][dI]))
yes

Determine whether measured PAMPA_Papp_Avg (apparent permeability) meets or exceeds 1 ×10⁻⁶ cm/s for CC(C)C[C@@H]1NC(=O)[C@@H](CC(C)C)NC(=O)[C@@H](CC(C)C)N(C)C(=O)[C@@H](CC(C)C)N(C)C(=O)[C@H](C(C)C)NC(=O)[C@@H](C)N(C)C(=O)[C@@H]2CCCN2C(=O)[C@@H]2CCCN2C(=O)[C@@H](C)N(C)C1=O [Design D9.19, P*aV*l*llL*aP] (cyclo(L[dNMeA]PP[dNMeA]V[dNMeL][dNMeL][dL]))
yes
